Consider the following compounds and their measured cell viability readings.
Test system: SEM cells
experimental_details: cell viability relative to DMSO control; higher = less cytotoxic
condition_set: HPLM + 10% dialyzed FBS; 48 h; 0.000781 µM

- compound: "CCN(CC)CC#CCOC(=O)C(O)(c1ccccc1)C1CCCCC1 (stereo not drawn)"
  cell viability: "108%"
- compound: "C[C@]12C[C@H](O)[C@H]3[C@@H](CC\\C4=C\\C(=O)\\C=C/[C@]34C)[C@@H]1CC[C@]2(O)C(=O)CO"
  cell viability: "113%"
- compound: "COC1CCC(CC1)N(C(=O)C2CCC(C)CC2)C3=C(SC(=C3)\\C4=C\\CCCC4)C(O)=O (stereo not drawn)"
  cell viability: "111%"
